Target: HIV Env of isolate C3347.c11 (clade AE) (HIV)
Assay: cell-based or functional assay
endpoint: IC50 (µg/ml) with constrains
Report the figure along with its unit, number first.

Lookup: Please report IC50 (µg/ml) with constrains for the following binder: ePGDM13 (antibody, V domains shown) VH: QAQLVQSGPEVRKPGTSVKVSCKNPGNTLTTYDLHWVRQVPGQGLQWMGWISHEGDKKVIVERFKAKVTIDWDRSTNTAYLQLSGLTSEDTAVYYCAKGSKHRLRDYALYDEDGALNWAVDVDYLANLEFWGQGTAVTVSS VL: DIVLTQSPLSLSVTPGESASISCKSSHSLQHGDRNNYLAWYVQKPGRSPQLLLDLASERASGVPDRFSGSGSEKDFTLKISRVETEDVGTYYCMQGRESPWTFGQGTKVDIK
Found: 0.009 µg/mL

Lookup: Output measured IC50 (µg/ml) with constrains for this item: PGDM1400 (antibody, V domains shown) VH: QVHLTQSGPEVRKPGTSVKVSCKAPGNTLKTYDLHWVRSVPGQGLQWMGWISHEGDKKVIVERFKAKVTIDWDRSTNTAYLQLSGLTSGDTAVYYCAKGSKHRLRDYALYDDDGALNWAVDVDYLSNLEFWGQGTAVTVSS VL: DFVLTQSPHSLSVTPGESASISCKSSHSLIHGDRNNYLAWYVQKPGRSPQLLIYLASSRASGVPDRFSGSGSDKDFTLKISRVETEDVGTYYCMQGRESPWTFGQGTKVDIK
Found: 0.015 µg/mL

Lookup: Indicate its recorded IC50 (µg/ml) with constrains; the binder in question is ePGDM5 (antibody, V domains shown) VH: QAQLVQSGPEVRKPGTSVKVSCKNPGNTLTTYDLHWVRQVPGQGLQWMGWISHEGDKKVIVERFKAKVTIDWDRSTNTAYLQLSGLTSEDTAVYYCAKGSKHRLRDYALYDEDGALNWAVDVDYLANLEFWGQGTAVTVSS VL: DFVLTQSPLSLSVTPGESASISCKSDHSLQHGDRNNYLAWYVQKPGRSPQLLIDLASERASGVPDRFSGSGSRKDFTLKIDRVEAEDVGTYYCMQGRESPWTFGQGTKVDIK
Found: 0.005 µg/mL

Please examine the following record next.
Lookup: Return the recorded IC50 (µg/ml) with constrains value; entry: ePGDM9 (antibody, V domains shown) VH: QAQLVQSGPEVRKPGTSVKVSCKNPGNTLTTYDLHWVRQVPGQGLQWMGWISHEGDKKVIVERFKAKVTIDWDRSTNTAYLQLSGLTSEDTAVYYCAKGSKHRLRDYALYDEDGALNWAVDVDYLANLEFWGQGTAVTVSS VL: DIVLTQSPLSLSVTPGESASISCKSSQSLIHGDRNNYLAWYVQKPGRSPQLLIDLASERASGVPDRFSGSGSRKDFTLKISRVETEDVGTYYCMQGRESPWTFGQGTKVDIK
Found: 0.003 µg/mL
